Would you mind telling me the reported Emax at 10 µM of each entry?
system: L6-myotubes; test: Glucose uptake in differentiated L6-myotubes (Biological Example 2); format: cell-based; settings: glucose uptake in differentiated L6-myotubes; compound at 10 μM, activity relative to isoproterenol at 10 μM; read-out: Biological example 2 (GU)

query: Report Emax at 10 µM for `CC(C)(C[C@H]1CC[C@@H](O)CC1)NC[C@H](O)c1cccc(F)c1` please.
result: 50 to 75%

query: # input compound: `CC(C)(NC[C@H](O)c1cccc(F)c1)[C@H]1CC[C@H](C(=O)O)CC1` ; wanted: its Emax at 10 µM
result: 25 to 50%

query: Recorded Emax at 10 µM for `CO[C@H]1CC[C@@H](CCC(C)(C)NC[C@H](O)c2cncc(F)c2)CC1` , please?
result: > 75%

query: Need Emax at 10 µM, item `O[C@H](c1cccc(F)c1)C12CCC(CCCc3ccccc3)(CC1)N2`
result: > 75%

query: Please look up its Emax at 10 µM: `CC(C)(NC[C@H](O)c1cccc(F)c1)[C@H]1CC[C@H](O)CC1`
result: 50 to 75%

query: Can you look up the measured Emax at 10 µM of `O[C@H](c1cncc(F)c1)C12CCC(CCCc3ccccc3)(CC1)N2` for me?
result: 50 to 75%

query: # query: Emax at 10 µM of entry `CCC[C@@H]1CCCC[C@H]([C@H](O)c2cncc(F)c2)N1`
result: < 25%

query: Reported Emax at 10 µM for `O[C@@H](c1cccc(F)c1)C12CCC(COc3ccc(Cl)cc3)(CC1)N2` : what is it?
result: > 75%
